Tested on: CASKI
testSummary: Primary qHTS to identify gynecologic anti-cancer compounds using libraries of approved drugs and bioactive compounds (AID 1345084); further: on the % scale 0 is the no-effect control and ±100 the full control effect; nearly all actives have a fitted effect of over 55% in size
testConditions: Gynecologic cancer cell panel viability, ATPlite luminescence, 48 h; series mostly up to 57.5 µM
Inconclusive results are not listed. The source made the active and inactive calls. The call rests on the fitted dose curve; in most records, active means well fitted cell-killing curve with a large enough effect; inconclusive means small, poorly fitted or top-dose-only effect, or effect the other way; inactive means flat fitted curve, though single readings scatter.
assayMetric: activity change, negative = cytotoxicity

Worked cases, activity change, negative = cytotoxicity given:
CC1CCC2C(C)(C)C(O)CCC2(C)C12Cc1c(O)cc3c(c1O2)CN(C(CCC(N)=O)C(=O)O)C3=O (stereo unspecified) = inactive
CC(=O)OCCC(C)CCC1C(C)(O)CCC2C(C)(C)CCCC21C (stereo unspecified) = inactive
C=C1C[C@]23C[C@H]1CC[C@H]2[C@@]12C=C[C@H](O)[C@@](C)(C(=O)O1)[C@H]2[C@@H]3C(=O)O = inactive
CC1=CC[C@]2(C(=O)O[C@@H]3O[C@H](CO[C@@H]4O[C@H](CO)[C@@H](O[C@@H]5O[C@@H](C)[C@H](O)[C@@H](O)[C@H]5O)[C@H](O)[C@H]4O)[C@@H](O)[C@H](O)[C@H]3O)CC[C@]3(C)C(CCC4[C@@]5(C)C[C@@H](O)[C@H](O)[C@@](C)(CO)C5CC[C@]43C)C2C1C (stereo partly specified) = 4.37% [at 11.6 µM] (inactive)
C[C@@H]1O[C@@H](O[C@H]2[C@H](OC(C#N)c3ccc(O)cc3)O[C@H](CO)[C@@H](O)[C@@H]2O)[C@H](O)[C@H](O)[C@H]1O (stereo partly specified) = inactive

Moving on to the next molecule.
I'm curious: which activity change, negative = cytotoxicity was measured for `O=S(=O)(NC1CCNCC1)c1cc(S(=O)(=O)c2ccccc2)ccc1C(F)(F)F` tested on CASKI? inactive

====

Tested on: Tov-21-G
testSummary: Primary qHTS to identify gynecologic anti-cancer compounds using libraries of approved drugs and bioactive compounds (AID 1345084); further: on the % scale 0 is the no-effect control and ±100 the full control effect; nearly all actives have a fitted effect of over 55% in size
testConditions: Gynecologic cancer cell panel viability, ATPlite luminescence, 48 h; series mostly up to 57.5 µM
Records with an inconclusive call do not appear. The source made the active and inactive calls. The call rests on the fitted dose curve; in most records, active means well fitted cell-killing curve with a large enough effect; inconclusive means small, poorly fitted or top-dose-only effect, or effect the other way; inactive means flat fitted curve, though single readings scatter.
assayMetric: activity change, negative = cytotoxicity

Worked cases, activity change, negative = cytotoxicity given:
COc1cc(C2Oc3c(O)cc(CCCO)cc3C2CO)ccc1O[C@H]1O[C@H](C)[C@@H](O)[C@H](O)[C@@H]1O (stereo partly drawn) = inactive
CC(C)CC1(C(=O)OCc2ccc(O[C@@H]3O[C@H](CO)[C@@H](O)[C@H](O)[C@H]3O)cc2)CC(=O)OC(C(=O)O)CC(=O)OCC2OC(O1)C(OC(=O)/C=C/c1ccc(O)cc1)C(O)C2O (stereo partly drawn) = -1.82% [at 11.6 µM] (inactive)
CC(=O)OC[C@@]12[C@@H](OC(C)=O)C[C@@H](C)[C@](C)([C@@H]3C[C@H]4C=CO[C@H]4O3)[C@H]1CCC[C@]21CO1 = inactive
CC1CCC2(C)C(CC(O)C(O)C23CO3)C1(C)CCC1=CC(=O)OC1O (stereo not drawn) = inactive
C[C@@H]1O[C@@H](O[C@H]2[C@H](O[C@H]3CO[C@@H](O[C@H]4CC[C@@]5(C)C(CC[C@]6(C)C5CC[C@]57OC[C@@]8(CC[C@](C)(CO)CC85)[C@H](O)C[C@]76C)C4(C)C)[C@H](O[C@@H]4O[C@H](CO)[C@@H](O)[C@H](O)[C@H]4O)[C@H]3O)O[C@H](CO)[C@@H](O)[C@@H]2O)[C@H](O)[C@H](O)[C@H]1O (stereo partly drawn) = -1.65% [at 11.6 µM] (inactive)
C=C1CC[C@@H]2[C@](C)(CC[C@H](O)[C@@]2(C)CCC=C(C)C)[C@@H]1Cc1c[nH]c2ccccc12 = inactive

I'm curious: which activity change, negative = cytotoxicity was measured for `COc1ncc(-c2ccc3c(Nc4cc(Oc5cc(F)cc(F)c5)cc(C(=O)O)c4)c(S(=O)(=O)NC4CC4)cnc3c2)c(OC)n1` tested on Tov-21-G? inactive

I'm curious: which activity change, negative = cytotoxicity was measured for `CC1(C)OC(=O)C(OCC2CC2)=C1c1ccc(S(C)(=O)=O)cc1` tested on Tov-21-G? inactive

I'm curious: which activity change, negative = cytotoxicity was measured for `Clc1ccc(CN[C@H]2CCN(c3ncc(Br)cn3)C2)c(Cl)c1` tested on Tov-21-G? inactive

I'm curious: which activity change, negative = cytotoxicity was measured for COC(=O)[C@H](OC(C)=O)[C@H]1C(C)(C)C(=O)[C@H]2CC3=C4CC(=O)O[C@@H](c5ccoc5)[C@]4(C)CCC3[C@@]1(C)C2=O (stereo partly drawn) tested on Tov-21-G? inactive

====

testSummary: Primary fluorescence-based thiol-reactive (MSTI) qHTS assay for identification of artifact compounds. (AID 1845221); further: nearly all actives have a fitted effect of over 65% in size; further: potency means the concentration at half of the fitted maximal effect
testConditions: MSTI thiol-reactivity probe, 1 h; series mostly up to 53.8 µM
Results filed as inconclusive are left out. Activity calls are given as the source filed them. Calls follow the shape of the dose curve; as a rule, active = well fitted inhibition curve with a large enough effect; inconclusive = small, poorly fitted or top-dose-only effect; inactive = no such curve, though single readings can be large or run the other way.
assayMetric: Potency

Worked cases, Potency given:
COC1C=C([C@@H]2CC=C3[C@@]4(C)C(CC[C@]32C)[C@@]2(C)C=CC(=O)C(C)(C)C2C[C@H]4OC(C)=O)C(=O)O1 (some centres undefined) = inactive
O=C(NN1CCCCC1)c1nn(-c2ccc(Cl)cc2Cl)c(-c2ccc(C#Cc3ccc(C(F)(F)F)cc3)s2)c1CNS(=O)(=O)N1CCCC1 = inactive
C[C@H](NCc1ccc(OCc2ccccc2F)cc1)C(N)=O = inactive
O=C(/C=C/c1ccc(O)c(O)c1)OCc1ccccc1O[C@@H]1O[C@H](CO)[C@@H](O)[C@H](O)[C@H]1O = 0.922 µM (active)
CC(C)(O)C1=CCC23COC(C2)C(O)(C(=O)O)CCC13 (centres undefined) = inactive
C/C(=C\CO)CC/C=C(\C)C(=O)O[C@H]1[C@H](OC2OC=C(C(=O)O)C3CCC(C)(O)C23)O[C@H](CO)[C@@H](O)[C@@H]1O (some centres undefined) = 11.6 µM (active)
COc1cc(/C=C/C(=O)O[C@H]2[C@H](OC(=O)/C=C/c3cc(OC)c(O)c(OC)c3)O[C@H](CO[C@@H]3O[C@H](CO)[C@@H](O)[C@H](O)[C@H]3O)[C@@H](O)[C@@H]2O)ccc1O = inactive
N#CCc1ccc(O)cc1O[C@@H]1O[C@H](CO)[C@@H](O)[C@H](O)[C@H]1O = 13.1 µM (active)
COc1cc(/C=C/C(=O)OC[C@H]2O[C@H](O[C@]3(CO)O[C@H](CO)[C@@H](O)[C@@H]3O)[C@H](O)[C@@H](O)[C@@H]2O)cc(OC)c1O = inactive
C[C@@H]1CC[C@]2(C(=O)O[C@@H]3O[C@H](CO)[C@@H](O)[C@H](O)[C@H]3O)CC[C@]3(C)C(=CCC4[C@@]5(C)C[C@@H](O)[C@H](O)C(C)(C)C5CC[C@]43C)C2[C@]1(C)O (some centres undefined) = inactive

So what does the record say about Potency for CCC(NC(=O)CC(NC(=O)C(CO)NC(=O)C(CC)NC(=O)c1ccc[nH]1)c1ccccc1)C(=O)O (centres undefined) ? inactive

So what does the record say about Potency for CC1CCC2(C(=O)OC3OC(CO)C(O)C(O)C3O)CCC3(C(=O)O)C(=CCC4C5(C)CCC(OC6OC(C)C(O)C(O)C6O)C(C)(C)C5CCC43C)C2C1C (centres undefined) ? inactive

So what does the record say about Potency for `CO[C@@H](Cc1ccc(OCCc2nc(-c3ccccc3)oc2C)c2ccsc12)C(=O)O` ? inactive

So what does the record say about Potency for `C[C@@H]1C[C@H]2[C@@H]3CCC4=CC(=O)C=C[C@]4(C)[C@@]3(F)[C@@H](O)C[C@]2(C)[C@@]1(O)C(=O)COP(=O)(O)O` ? inactive

====

targetSystem: Calcium and integrin-binding protein 1 (Homo sapiens) (UniProt Q99828)
Sequence (Q99828 whole entry, looked up): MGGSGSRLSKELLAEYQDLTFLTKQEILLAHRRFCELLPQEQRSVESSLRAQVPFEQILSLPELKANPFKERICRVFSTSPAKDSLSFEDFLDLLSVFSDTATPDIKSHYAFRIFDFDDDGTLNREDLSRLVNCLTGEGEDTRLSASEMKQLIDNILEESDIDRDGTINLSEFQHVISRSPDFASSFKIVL
testSummary: Primary qHTS for Identification of Calcium Integrin Binding Protein 1 (CIB1) Competitor (AID 1508620);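 further: GST tagged CIB1 binding a fluorescein labelled alphaIIb integrin peptide tracer; top concentration of the series differs between compounds; on the % scale 0 is the no-effect control and ±100 the full control effect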
testConditions: CIB1-GST / FITC-alphaIIb peptide fluorescence polarization; series mostly up to 57.7 µM
Results filed as inconclusive are left out. The source made the active and inactive calls. The call rests on the fitted dose curve; in most records, active means well fitted inhibition curve with a large enough effect; inconclusive means small, poorly fitted or top-dose-only effect; inactive means flat fitted curve, though single readings scatter.
assayMetric: activity change, negative = inhibition

CC1OC(OC2C(C)OC(OC3C(OC(=O)/C=C/c4ccc(O)cc4)C(CO)OC(OC4(COC(=O)/C=C/c5ccc(O)cc5)OC(CO)C(O)C4O)C3OC3OCC(O)(CO)C3O)C(O)C2O)C(O)C(O)C1O (stereo not drawn) = inactive
C[C@]1(O)CC[C@@H]2C(C(=O)O)=CO[C@@H](O[C@@H]3O[C@H](COC(=O)c4ccc(O)cc4)[C@@H](O)[C@H](O)[C@H]3O)[C@@H]21 = inactive
C[C@@H]1O[C@@H](O[C@H]2[C@H](OC(=O)[C@]34CCC(C)(C)C[C@H]3C3=CCC5[C@@]6(C)C[C@H](O)[C@H](O[C@@H]7O[C@H](CO[C@@H]8OC[C@H](O)[C@H](O)[C@H]8O)[C@@H](O)[C@H](O)[C@H]7O)C(C)(C)C6CC[C@@]5(C)[C@]3(C)C[C@H]4O)OC[C@@H](O)[C@@H]2O)[C@H](O)[C@H](O[C@@H]2OC[C@](O)(CO)[C@H]2O)[C@H]1O[C@@H]1OC[C@H](O)[C@H](O[C@@H]2OC[C@@H](O)[C@H](O)[C@H]2O)[C@H]1O (stereo partly drawn) = 1.69% [at 12.4 µM] (inactive)
